Measured values drawn from patent US8975248B2 for this set.

# protocol details: Maximum tolerated dose (MTD) in tumor-bearing mice
# Assay type: in vivo
# condition description: CD1 nu/nu, mouse, in vivo, ip; docetaxel i.p. q4dx2; read-out: MTD
readout kind: MTD (mg/kg)
Please respond with the number in mg/kg and leave the unit unwritten.

Field request: MTD | item: CC(=O)O[C@@]12CO[C@@H]1C[C@H](O)[C@@]1(C)C(=O)[C@H](O)C3=C(C)[C@@H](OC(=O)[C@H](O)[C@@H](NC(=O)OC(C)(C)C)c4ccccc4)C[C@@](O)([C@@H](OC(=O)c4ccccc4)[C@H]21)C3(C)C [B, docetaxel, reference compound] 20

====

# protocol details: Maximum tolerated dose (MTD) in tumor-bearing mice
# Type: in vivo
# condition description: female, CD1 nu/nu, mouse, in vivo, oral; qdx5/w; A2780/DDP model; read-out: approximate maximum tolerated dose
readout kind: MTD

Field request: MTD | item: CC[C@@]1(O)C(=O)OCc2c1cc1n(c2=O)Cc2c-1nc1ccccc1c2/C=N/OC(C)(C)C ~0.28 mg/kg

====

# protocol details: Maximum tolerated dose (MTD) in tumor-bearing mice
# Type: in vivo
# condition description: male, mouse, in vivo, oral; qdx5/w; DU145 model; read-out: approximate maximum tolerated dose
readout kind: MTD

Field request: MTD | item: CC[C@@]1(O)C(=O)OCc2c1cc1n(c2=O)Cc2c-1nc1ccccc1c2/C=N/OC(C)(C)C ~0.25 mg/kg

====

# protocol details: Maximum tolerated dose (MTD) in tumor-bearing mice
# Type: in vivo
# condition description: CD1 nu/nu, mouse, in vivo, po; p.o. qdx5
readout kind: MTD at 5 days (mg/kg)
Please respond with the number in mg/kg and leave the unit unwritten.

Field request: MTD at 5 days | item: CC[C@@]1(O)C(=O)OCc2c1cc1n(c2=O)Cc2c-1nc1ccccc1c2/C=N/OC(C)(C)C [A] 0.28
